Target: human TLR7 (Homo sapiens (Human))
Assay: Test for evaluating the inhibition of the activation of human TLR7 (SEAP reporter, TLR7/NF-κB/SEAPorter HEK293 cell)
Conditions: R-848 200 nmol/L, SEAP reporter
Assign labels as follows, please: true (1) for IC50 below 400 nM; false (0) for IC50 equal to or exceeding 400 nM.

compound	measurementTarget	answerLabel
CCOc1nc(C)c2nc(-c3cncc(C#N)c3)n(Cc3ccc(CN4C[C@@H]5C[C@H]4CN5C)cc3F)c2n1 [Example 311]	human TLR7 (Homo sapiens (Human))	true (1)
CCOc1nc(C)c2nc(-c3cncc(F)c3)n(Cc3cccnc3)c2n1 [Example 168]	human TLR7 (Homo sapiens (Human))	false (0)
CCN1CCC(c2ccc(Cn3c(-c4cncc(F)c4)nc4c(C)nc(OC)nc43)c(F)c2)CC1 [Example 284]	human TLR7 (Homo sapiens (Human))	true (1)
COc1nc(C)c2nc(-c3ccc(C)nc3)n(Cc3ccc(C4CN5CCC4CC5)cc3F)c2n1 (stereo not shown) [Example 306]	human TLR7 (Homo sapiens (Human))	true (1)
CCOc1nc(N)c2nc(-c3cncc(COC)c3)n(Cc3ccc(CN(C)C)cc3)c2n1 [Example 34]	human TLR7 (Homo sapiens (Human))	false (0)
COc1nc(C)c2nc(-c3cncc(F)c3)n(Cc3ccc(Br)c(F)c3)c2n1 [Example 332]	human TLR7 (Homo sapiens (Human))	false (0)

## Input Is 400 nM strictly greater than the compound's reported IC50? compound: CCOc1nc(C)c2nc(-c3cncc(F)c3)n(Cc3ccc(C4=CN5CCC4CC5)cc3C#N)c2n1 [Example 363]
## Output false (0)

## Input Is 400 nM strictly greater than the compound's reported IC50? compound: COc1nc(C)c2nc(-c3cncc(F)c3)n(Cc3ccc(OCC4CN(C(=O)OC(C)(C)C)C4)cc3F)c2n1 [Example 419]
## Output false (0)

## Input Is 400 nM strictly greater than the compound's reported IC50? compound: CCOc1nc(N)c2nc(-c3cncc(F)c3)n(Cc3ccc(N4CCN(C)CC4)nc3)c2n1 [Example 65]
## Output false (0)

## Input Is 400 nM strictly greater than the compound's reported IC50? compound: CCCCOc1nc(N)c2nc(-c3cccc(Cl)c3)n(Cc3ccccc3)c2n1 [Example 13]
## Output false (0)

## Input Is 400 nM strictly greater than the compound's reported IC50? compound: CCOc1nc(N)c2nc(-c3cncc(F)c3)n(Cc3ccccc3)c2n1 [Example 21]
## Output false (0)

## Input Is 400 nM strictly greater than the compound's reported IC50? compound: CCOc1nc(N)c2nc(-c3cncc(F)c3)n(Cc3ccc(OCCCN(C)C)nc3)c2n1 [Example 42]
## Output false (0)

## Input Is 400 nM strictly greater than the compound's reported IC50? compound: COCCOc1nc(N)c2nc(-c3cncc(F)c3)n(Cc3ccc(CN4CCC(F)(F)CC4)cc3)c2n1 [Example 92]
## Output true (1)

====

Biological target: human TLR7 (Homo sapiens (Human), UniProt Q9NYK1)
Sequence (Q9NYK1 27-1049): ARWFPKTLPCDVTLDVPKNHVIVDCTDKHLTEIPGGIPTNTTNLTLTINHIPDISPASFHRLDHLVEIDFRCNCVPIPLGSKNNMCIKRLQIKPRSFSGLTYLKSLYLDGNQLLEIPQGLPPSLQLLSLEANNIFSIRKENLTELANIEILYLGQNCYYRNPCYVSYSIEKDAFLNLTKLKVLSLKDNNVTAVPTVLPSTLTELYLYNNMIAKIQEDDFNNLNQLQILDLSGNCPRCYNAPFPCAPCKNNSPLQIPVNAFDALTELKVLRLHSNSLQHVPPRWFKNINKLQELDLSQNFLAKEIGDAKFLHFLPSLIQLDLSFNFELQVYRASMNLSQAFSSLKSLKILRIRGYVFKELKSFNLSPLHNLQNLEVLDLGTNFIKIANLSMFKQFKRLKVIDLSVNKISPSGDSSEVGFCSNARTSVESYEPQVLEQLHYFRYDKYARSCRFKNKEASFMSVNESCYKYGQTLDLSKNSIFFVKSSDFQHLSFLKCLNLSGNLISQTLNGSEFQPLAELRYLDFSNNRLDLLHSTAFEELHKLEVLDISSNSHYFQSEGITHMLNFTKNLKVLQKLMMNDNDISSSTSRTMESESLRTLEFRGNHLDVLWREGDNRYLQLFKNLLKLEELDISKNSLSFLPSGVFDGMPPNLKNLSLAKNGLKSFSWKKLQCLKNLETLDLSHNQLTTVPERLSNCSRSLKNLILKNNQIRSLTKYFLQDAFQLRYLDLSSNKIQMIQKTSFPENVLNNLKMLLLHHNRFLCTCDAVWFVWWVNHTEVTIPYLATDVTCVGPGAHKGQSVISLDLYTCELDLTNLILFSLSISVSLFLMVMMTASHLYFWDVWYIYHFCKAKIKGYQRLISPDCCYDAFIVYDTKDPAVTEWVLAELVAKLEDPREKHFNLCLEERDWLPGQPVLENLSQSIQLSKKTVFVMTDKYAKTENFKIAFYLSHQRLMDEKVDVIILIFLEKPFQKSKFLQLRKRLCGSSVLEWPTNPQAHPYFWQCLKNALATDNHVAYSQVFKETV
Experiment: Test for evaluating the inhibition of the activation of human TLR7 (SEAP reporter, TLR7/NF-κB/SEAPorter HEK293 cell)
Details: R-848 200 nmol/L, SEAP reporter
Assign labels as follows, please: YES for IC50 below 100 nM; NO for IC50 equal to or exceeding 100 nM.

## Input Is 100 nM strictly greater than the molecule's reported IC50? molecule: COc1nc(C)c2nc(-c3ccc(C(N)=O)nc3)n(Cc3ccc(OC4CN5CCC4CC5)cc3F)c2n1 (stereo not shown)
## Output NO
